These data points were gathered from patent US20210380680A1.

target: T1, human Claudin 18.2 (CLDN18.2) (human, UniProt P56856-2 1-261); experiment: FACS Exp. 2, MFI ratio CHO-18.2 over CHO-18.1
T1 construct: whole, on cells; recombinantly expressed on CHO, HEK293, NCI-N87, NUGC4 or PANC-1 cells; also called CHO-CLDN18.2
Experimental endpoint: MFI_CHO-18.2/CHO-18.1 (@30 ug/ml)

- Binder: "hz282-12 (antibody, V domains shown, humanized IgG; constant regions not specified) VH: QVQLQESGPGLVKPSETLSLTCTVAGFSLTSYNVYWIRQPPGKGLEWIGVIWNTGATRYNSALKSRVTISKDTSKSQVSLKLSSVTAADTAVYYCARDSAMPAIPFAYWGQGTLVTVSS VL: DIQMTQSPSSLSASVGDRVTITCKSSQSLFGSVRQKNYLAWYQQKPGKAPKLLIYLASTRESGVPSRFSGSGSGTDFTLTISSLQPEDFATYYCQQYYDIPWTFGGGTKVEIK"
  Observed value: 1940
- Binder: "hz282-8 (antibody, V domains shown, humanized IgG; constant regions not specified) VH: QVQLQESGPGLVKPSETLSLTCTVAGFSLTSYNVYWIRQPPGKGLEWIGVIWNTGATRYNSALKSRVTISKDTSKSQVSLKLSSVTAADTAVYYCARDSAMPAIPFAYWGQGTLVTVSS VL: DIVMTQSPDSLAVSLGERATINCKSSQSLFGSVRQKNYLAWYQQKPGQSPKLLIYLASTRESGVPDRFSGSGSGTDFTLTISSLQAEDVAKYYCQQYYDIPWTFGGGTKVEIK"
  Observed value: 1610
- Binder: "hz282-15 (antibody, V domains shown, humanized IgG; constant regions not specified) VH: QVQLQESGPGLVKPSETLSLTCTVSGFSLTSYNVYWIRQPPGKGLEWIGVIWNTGATRYNSALKSRVTISKDTSKSQVSLKLSSVTAADTAVYYCARDSAMPAIPFAYWGQGTLVTVSS VL: DIQMTQSPSSLSASVGDRVTITCKSSQSLFGSVRQKNYLAWYQQKPGKSPKLLIYLASTRESGVPDRFSGSGSGTDFTLTISSLQPEDFAKYYCQQYYDIPWTFGGGTKVEIK"
  Observed value: 2020
- Binder: "hz282-10 (antibody, V domains shown, humanized IgG; constant regions not specified) VH: QVQLQESGPGLVKPSETLSLTCTVSGFSLTSYNVYWIRQPPGKGLEWIGVIWNTGATRYNSALKSRVTISKDTSKNQVSLKLSSVTAADTAVYYCARDSAMPAIPFAYWGQGTLVTVSS VL: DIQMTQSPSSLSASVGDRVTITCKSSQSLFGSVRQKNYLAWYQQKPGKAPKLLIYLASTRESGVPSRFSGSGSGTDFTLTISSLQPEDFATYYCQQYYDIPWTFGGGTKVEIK"
  Observed value: 1500
